# Lookup of reported bioavailability keyed by entry
assay: Oral availability in rat; assay type: ADME; details: in vivo
Response body: numeric value in %, unit text excluded.

>>> meas_value("C[C@H](N)C(=O)NC[C@@H](CCCB(O)O)[C@H](N)C(=O)O")
10
>>> meas_value("NCC(=O)NC[C@H](CCCB(O)O)[C@H](N)C(=O)O")
6.3
>>> meas_value("CC(C)(C)[C@H](N)C(=O)NC[C@H](CCCB(O)O)[C@H](N)C(=O)O")
19

Incoming: What bioavailability value was documented for this molecule, CC(C)[C@H](N)C(=O)NC[C@@H](CCCB(O)O)[C@H](N)C(=O)O ?
Outgoing: 29
